Target: IGFR-1 (Homo sapiens, UniProt P08069)
Construct: Kinases are expressed as either kinase domains or full length constructs; made in house
Sequence (P08069 31-1367): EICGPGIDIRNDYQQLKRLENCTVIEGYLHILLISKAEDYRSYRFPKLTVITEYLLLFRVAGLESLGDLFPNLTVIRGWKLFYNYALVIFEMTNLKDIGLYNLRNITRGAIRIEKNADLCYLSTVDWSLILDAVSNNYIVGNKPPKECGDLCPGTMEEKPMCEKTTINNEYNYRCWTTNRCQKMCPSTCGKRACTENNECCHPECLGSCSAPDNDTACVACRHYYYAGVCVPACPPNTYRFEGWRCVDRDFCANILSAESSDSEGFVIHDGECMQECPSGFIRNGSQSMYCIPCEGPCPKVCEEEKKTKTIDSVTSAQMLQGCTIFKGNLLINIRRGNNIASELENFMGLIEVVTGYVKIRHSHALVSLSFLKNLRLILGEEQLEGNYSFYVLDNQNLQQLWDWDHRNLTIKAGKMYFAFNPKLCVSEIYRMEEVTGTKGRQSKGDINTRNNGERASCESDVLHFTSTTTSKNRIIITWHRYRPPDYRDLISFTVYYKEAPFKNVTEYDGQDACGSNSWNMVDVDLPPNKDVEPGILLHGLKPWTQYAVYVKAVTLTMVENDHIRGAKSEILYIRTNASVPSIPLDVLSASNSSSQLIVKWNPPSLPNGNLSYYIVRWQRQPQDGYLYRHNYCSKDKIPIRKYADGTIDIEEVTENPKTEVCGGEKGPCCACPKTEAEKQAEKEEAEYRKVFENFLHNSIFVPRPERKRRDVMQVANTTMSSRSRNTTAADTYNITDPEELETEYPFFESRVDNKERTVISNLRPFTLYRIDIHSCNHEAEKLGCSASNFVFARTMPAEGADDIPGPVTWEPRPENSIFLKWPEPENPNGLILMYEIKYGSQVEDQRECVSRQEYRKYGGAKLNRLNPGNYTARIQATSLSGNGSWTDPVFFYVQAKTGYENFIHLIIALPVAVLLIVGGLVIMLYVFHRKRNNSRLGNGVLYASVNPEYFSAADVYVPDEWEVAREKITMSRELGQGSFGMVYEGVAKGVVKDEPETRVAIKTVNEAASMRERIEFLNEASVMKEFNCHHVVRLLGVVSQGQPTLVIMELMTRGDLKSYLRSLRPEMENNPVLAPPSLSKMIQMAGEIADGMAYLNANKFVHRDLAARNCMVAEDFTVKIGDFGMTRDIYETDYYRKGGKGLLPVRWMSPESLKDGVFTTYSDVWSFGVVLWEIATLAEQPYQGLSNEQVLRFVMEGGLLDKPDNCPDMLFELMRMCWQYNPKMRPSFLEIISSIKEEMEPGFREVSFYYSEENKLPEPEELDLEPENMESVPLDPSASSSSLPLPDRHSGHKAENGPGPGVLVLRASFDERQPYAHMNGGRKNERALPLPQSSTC
Experiment: Kinase inhibition assay (33P transfer), IGFR-1
Format: biochemical
Settings: Table 2, kinase inhibition class
pIC50: −log10 of the molar value.
assay_readout: pIC50

[Q] I would be grateful if you could share the reported pIC50 for "COc1cc(Nc2ncnc(Nc3nc4ccc(F)cc4s3)n2)cc(OC)c1OC" .
[A] 5.25 to 6.03

[Q] Next compound: "NC(=O)c1cccc(Nc2ncnc(Nc3cc(-c4ccco4)n[nH]3)n2)c1"
[A] 5.18 to 5.96

[Q] Next compound: "COc1ccccc1Nc1ncnc(Nc2cc(OC)c(OC)c(OC)c2)n1"
[A] 5.20 to 5.98

[Q] Next compound: "COc1cc(Nc2ncnc(Nc3ccc(S(=O)(=O)NC(C)=O)cc3)n2)cc(OC)c1OC"
[A] < 5.02
